# maps each entry to its lanosterol
- Test system: cholesterol biosynthesis in HepG2 cells
- Experiment: Metabolic labeling of HepG2 cells with [3H]acetate; radio-HPLC sterol profile (inhibition of cholesterol biosynthesis)
- Assay type: cell-based, human
- Test Parameters: Table II (arranged by sterol profile); 10 μM compound, HepG2; normalized to normal medium (1.00)
Structures can show the parent of a compound that is named as a salt.

{"columns": ["Compound", "Assay System", "lanosterol"],
 "data": [
  ["FC(F)(F)c1ccc(CN2CCN(CCc3ccccc3)CC2)cn1 [LK-9107, trihydrobromide]", "cholesterol biosynthesis in HepG2 cells", 0.36],
  ["Fc1ccc(CCN2CCN(CCc3ccccn3)CC2)cc1F [LK-9138, trihydrobromide]", "cholesterol biosynthesis in HepG2 cells", 0.25],
  ["c1ccc(CCN2CCN(Cc3ccc(N4CCOCC4)nc3)CC2)cc1 [LK-9109B]", "cholesterol biosynthesis in HepG2 cells", 0.95],
  ["OC(CN1CCN(CCc2ccccc2)CC1)c1cccnc1 (centres unmarked) [LK-980, trihydrobromide]", "cholesterol biosynthesis in HepG2 cells", 0.96],
  ["COc1ccc(CN2CCN(CCc3ccccc3)CC2)cn1 [LK-9106, trihydrobromide]", "cholesterol biosynthesis in HepG2 cells", 0.52]
]}
